This listing pairs compounds with measured Chemokine induction MCP-3.
Test system: MCP-3 release by human PBMC
Assay: Chemokine induction in PBMC (capture ELISA)
Assay type: cell-based
Conditions: 100 μg/ml peptide, background (6) subtracted
Residues, ends and D or L forms follow the SMILES beside them.
Form entry: enter the amount, then its unit.

CC(C)[C@H](NC(=O)[C@H](CCCNC(=N)N)NC(=O)[C@H](CCCCN)NC(=O)[C@@H](NC(=O)[C@H](Cc1ccccc1)NC(=O)[C@H](CCCCN)NC(=O)[C@H](Cc1c[nH]c2ccccc12)NC(=O)[C@@H](NC(=O)[C@H](C)N)C(C)C)C(C)C)C(N)=O [HHC123, AVWKFVKRV] (H-AVWKFVKRV-NH2; N-terminus assumed) = 3 pg/mL
N=C(N)NCCC[C@H](NC(=O)[C@H](CCCNC(=N)N)NC(=O)[C@@H](N)Cc1ccccc1)C(=O)N[C@@H](Cc1c[nH]c2ccccc12)C(=O)N[C@@H](Cc1c[nH]c2ccccc12)C(=O)N[C@@H](CCCCN)C(=O)N[C@@H](Cc1c[nH]c2ccccc12)C(=O)N[C@@H](Cc1ccccc1)C(=O)N[C@@H](CCCCN)C(N)=O [HHC53, FRRWWKWFK] (H-FRRWWKWFK-NH2; N-terminus assumed) = 5 pg/mL

Consider the record given below.
Test item N=C(N)NCCC[C@H](NC(=O)[C@H](Cc1c[nH]c2ccccc12)NC(=O)[C@H](CCCCN)NC(=O)[C@H](CCCCN)NC(=O)[C@H](Cc1c[nH]c2ccccc12)NC(=O)[C@H](Cc1c[nH]c2ccccc12)NC(=O)[C@H](CCCNC(=N)N)NC(=O)[C@H](CCCCN)NC(=O)[C@@H](N)Cc1c[nH]c2ccccc12)C(N)=O [HHC45, WKRWWKKWR] (H-WKRWWKKWR-NH2; N-terminus assumed) ; MCP-3 release by human PBMC; reported Chemokine induction MCP-3 was -2 pg/mL

FYI, the data here is from patent US8343475B2.
